assay: SRB assay for cytotoxic effect in RAW 264.7 cells under the NO assay condition; format: cell-based, murine; settings: mouse, RAW 264.7 macrophage cells (LPS-activated), 20 μg/mL after 20 h incubation in RAW 264.7 cells; read-out: Cytotoxic activity % Survival
Where a name gives a salt, the structure may show the parent alone.
Quantity Measured: activity at 20 h, 20 μg/mL

Q: Please look up its activity at 20 h, 20 μg/mL: CC(=O)CCCC(C)(C)C(=O)CCC(C)=CCCC1(C)CCC(C(C)C(=O)O)OO1 (stereo not shown)
Result: 99%

Q: Please look up its activity at 20 h, 20 μg/mL: C=C1CCCC2C1(C)CCC(C)C2(C)CCC1(C)CCC(C(C)C(=O)OC)OO1 (stereo not shown)
Result: > 100%

New cases:
Q: Please look up its activity at 20 h, 20 μg/mL: [H]/N=C(/NC)NCCC[C@H](N)C(=O)O [L-NMMA, L-N^G-Monomethyl Arginine citrate, reference compound]
Result: > 100%

Q: Please look up its activity at 20 h, 20 μg/mL: COC(=O)C(C)C1CCC(C)(CCC=C(C)CCC=C(C)CCC=C(C)C)OO1 (stereo not shown)
Result: > 100%

----------
assay: SRB assay for cytotoxic effect in RAW 264.7 cells under the NO assay condition; type: cell-based, murine; settings: mouse, RAW 264.7 macrophage cells (LPS-activated), 20 μg/mL after 20 h incubation in RAW 264.7 cells; read-out: Cytotoxic activity % Survival
Quantity Measured: activity at 20 h, 20 μg/mL (%)
Just the number in %, nothing appended.

Q: Please look up its activity at 20 h, 20 μg/mL: CC1=C(CC/C(C)=C/CC[C@@]2(C)CC[C@@H]([C@H](C)C(=O)O)OO2)C(C)(C)CCC1 [Compound 1, epimuqubilin A]
Result: 36.1

New cases:
Q: Please look up its activity at 20 h, 20 μg/mL: C=C1CCC[C@H]2[C@](C)(CC[C@]3(C)CC[C@H]([C@@H](C)C(=O)O)OO3)[C@@H](C)CC[C@]12C [Compound 6, sigmosceptrellin A]
Result: 43
